Assay: chemical genetic growth profiling, strain panel (AID 1159580);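 note: tested at 20 µM; growth read once vehicle control cultures reached saturation at 30 °C; 1 = growth at the plate median or of vehicle wells; lower values mean less growth of the strain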
Conditions: S. cerevisiae deletion strains, growth OD, locus YER016W, strain bim1, hits give low values
Among all 5,500 compounds or so, about 2,000 (36%) were called active. Inconclusive results (about 18%) are left out. Some of the results follow.
measured-property: normalized growth

- molecule: "C#C[C@]1(O)CCC2C3CCC4=Cc5oncc5C[C@]4(C)C3CC[C@@]21C (some centres undefined)"
  meas-value: 0.969
- molecule: "O=C1c2ccccc2C(=O)C1c1ccccc1"
  meas-value: 1
- molecule: "COc1c2c(cc3c1OCO3)C13C=C[C@H](OC)CC1N(C2)CC3O (some centres undefined)"
  meas-value: 0.975
- molecule: "CC(=O)OCC(=O)[C@@]1(O)CCC2C3CCC4=CC(=O)CC[C@]4(C)C3[C@@H](O)C[C@@]21C (some centres undefined)"
  meas-value: 1.05
- molecule: "CC(=O)[C@@]1(O)CCC2C3CCC4=CC(=O)CC[C@]4(C)C3CC[C@@]21C (some centres undefined)"
  meas-value: 0.99
- molecule: "CCc1cccc2c3c([nH]c12)C(CC)(CC(=O)O)OCC3 (centres undefined)"
  meas-value: 0.984
- molecule: "CC(=O)N[C@@H](Cc1c[nH]c2ccccc12)C(=O)O"
  meas-value: 0.953
- molecule: "C[C@]12CCC3C(CC[C@H]4C[C@H](OS(=O)(=O)O)CC[C@]34C)C1CCC2=O (some centres undefined)"
  meas-value: 1.04
- molecule: "COc1cccc(OC)c1C(=O)N[C@@H]1C(=O)N2[C@@H]1SC(C)(C)[C@@H]2C(=O)O"
  meas-value: 0.997
- molecule: "CN1CCN(CC(=O)N2c3ccccc3C(=O)Nc3cccnc32)CC1"
  meas-value: 0.997
- molecule: "CC(=O)NO"
  meas-value: 0.996
- molecule: "CC(=O)OCC(=O)[C@@]12OC3(CCCC3)O[C@@H]1CC1C3CCC4=CC(=O)C=C[C@]4(C)[C@@]3(F)[C@@H](O)C[C@@]12C (some centres undefined)"
  meas-value: 1.03
- molecule: "NCCNCCNCCN"
  meas-value: 1
- molecule: "CC(=O)O[C@H]1CC[C@]2(C)C3CC(=O)[C@]4(C)C(C(C)=O)=CCC4C3CC[C@H]2C1 (some centres undefined)"
  meas-value: 0.994
- molecule: "CCOc1ccc(C(=O)c2ccc(O)c(O)c2O)cc1"
  meas-value: 0.924
- molecule: "CC(=O)O[C@@H]1CC[C@]2(C)C3CC[C@]4(C)C(=O)CCC4C3CC[C@H]2C1 (some centres undefined)"
  meas-value: 1.03
- molecule: "CC1(C)S[C@@H]2[C@H](NC(=O)Cc3ccccc3)C(=O)N2[C@H]1C(=O)O"
  meas-value: 1.02
- molecule: "C[C@]12CCC(=O)C=C1CCC1C2C(=O)C[C@@]2(C)C1CC[C@]2(O)C(=O)CO (some centres undefined)"
  meas-value: 1
- molecule: "O=C(O)c1cc(=O)c2c(Cl)cc(Cl)cc2[nH]1"
  meas-value: 1.01
- molecule: "COc1ccc2c(=O)ccoc2c1"
  meas-value: 1.02
- molecule: "COc1ccc(C(=O)c2ccc(O)cc2)c(O)c1O"
  meas-value: 0.978
- molecule: "C[C@]12CCC(=O)C=C1CCC1C2[C@@H](O)C[C@@]2(C)C1CC[C@]2(O)C(=O)COC(=O)CCC(=O)O (some centres undefined)"
  meas-value: 1.01
- molecule: "CCOC([O-])=Nc1c[n+](N2CCOCC2)no1"
  meas-value: 1.01
- molecule: "CCC1C(=O)OCC1Cc1cncn1C (centres undefined)"
  meas-value: 1.01
- molecule: "Cc1onc(-c2c(Cl)cccc2Cl)c1C(=O)N[C@@H]1C(=O)N2[C@@H]1SC(C)(C)[C@@H]2C(=O)O"
  meas-value: 0.997
- molecule: "NC(=O)N1c2ccccc2C=Cc2ccccc21"
  meas-value: 1.02
- molecule: "CNC(Cc1c[nH]c2ccccc12)C(=O)O (centres undefined)"
  meas-value: 0.988
- molecule: "COc1ccc(C2C(=O)c3ccccc3C2=O)cc1"
  meas-value: 0.995
- molecule: "COc1ccc(C(=O)c2ccccc2)c(O)c1O"
  meas-value: 0.972

====

Assay: chemical genetic growth profiling, strain panel (AID 1159580);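 note: tested at 20 µM; growth read once vehicle control cultures reached saturation at 30 °C; 1 = growth at the plate median or of vehicle wells; lower values mean less growth of the strain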
Conditions: S. cerevisiae deletion strains, growth OD, locus YDR137W, strain rgp1, hits give low values
The whole screen tested about 5,500 compounds, of which about 2,000 (36%) were called active. About 18% were inconclusive and are not listed. Some of the results follow.
// NB: equality with 1 counts as no (0); only normalized growth strictly below is yes (1)

- compound: "CC1(C)C(=O)[C@@H]2C[C@@]3(O)C4=CC(=O)O[C@@H](c5ccoc5)[C@]4(C)CCC3[C@@](C)(C2=O)[C@H]1CC(=O)O (stereo partly specified)"
  assigned-category: "no (0)"
- compound: "CC1=NN(c2ccccc2)C(=O)C1"
  assigned-category: "yes (1)"
- compound: "O=C(CCBr)N1CCN(C(=O)CCBr)CC1"
  assigned-category: "no (0)"
- compound: "COc1c2c(cc3c1OCO3)C13C=C[C@H](OC)CC1N(C2)CC3O (stereo partly specified)"
  assigned-category: "yes (1)"
- compound: "CC(=O)CC1CCCCN1 (stereo unspecified)"
  assigned-category: "no (0)"
- compound: "C=C(C)[C@H]1Cc2c(ccc3c2O[C@@H]2COc4cc(OC)c(OC)cc4[C@@H]2C3=O)O1"
  assigned-category: "yes (1)"
- compound: "COc1cc2c(cc1OC)[C@@H]1C(=O)c3ccc4c(c3O[C@@H]1CO2)CC(C(C)C)O4 (stereo partly specified)"
  assigned-category: "yes (1)"
- compound: "O=C(OC[C@H]1O[C@H](OC(=O)c2cc(O)c(O)c(OC(=O)c3cc(O)c(O)c(O)c3)c2)[C@H](OC(=O)c2cc(O)c(O)c(OC(=O)c3cc(O)c(O)c(O)c3)c2)[C@@H](OC(=O)c2cc(O)c(O)c(OC(=O)c3cc(O)c(O)c(O)c3)c2)[C@@H]1OC(=O)c1cc(O)c(O)c(OC(=O)c2cc(O)c(O)c(O)c2)c1)c1cc(O)c(O)c(OC(=O)c2cc(O)c(O)c(O)c2)c1"
  assigned-category: "yes (1)"
- compound: "OC(c1cc(C(F)(F)F)nc2c(C(F)(F)F)cccc12)C1CCCCN1 (stereo unspecified)"
  assigned-category: "no (0)"

====

// normalized growth lookup, one value per entry
Test: chemical genetic growth profiling, strain panel (AID 1159580);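 note: tested at 20 µM; growth read once vehicle control cultures reached saturation at 30 °C; 1 = growth at the plate median or of vehicle wells; lower values mean less growth of the strain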
Conditions: S. cerevisiae deletion strains, growth OD, locus YKL068W, hits give low values
In all, about 5,500 compounds went through this assay and about 2,000 (36%) were called active. Inconclusive results (about 18%) are left out. Some of the results follow.

- compound: "CCCCc1nc(Cl)c(CO)n1Cc1ccc(-c2ccccc2-c2nn[nH]n2)cc1"
  normalized growth: 0.997
- compound: "O=C(CCBr)N1CCN(C(=O)CCBr)CC1"
  normalized growth: 1
- compound: "CC1=CC(=O)C2=C(C)CC(O)C3C(C)C(=O)OC3C12 (configuration not stated)"
  normalized growth: 0.999
- compound: "CCCc1nc2c(C)cc(-c3nc4ccccc4n3C)cc2n1Cc1ccc(-c2ccccc2C(=O)O)cc1"
  normalized growth: 1.01
- compound: "O=C(O)c1cc([N+](=O)[O-])ccc1NCCCc1ccccc1"
  normalized growth: 0.873
- compound: "CC[C@H]1CN2CCc3cc(OC)c(OC)cc3C2C[C@@H]1CC1NCCc2cc(OC)c(OC)cc21 (some centres not stated)"
  normalized growth: 1.01
- compound: "CCOc1cccc(C(=O)c2ccc(O)c(O)c2O)c1"
  normalized growth: 0.972

====

Test: chemical genetic growth profiling, strain panel (AID 1159580);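 note: tested at 20 µM; growth read once vehicle control cultures reached saturation at 30 °C; 1 = growth at the plate median or of vehicle wells; lower values mean less growth of the strain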
Details: S. cerevisiae deletion strains, growth OD, locus YDR226W, strain ADK1
Screen size: about 5,500 compounds; about 2,000 (36%) were called active. Another 18% or so got no clear call; they are omitted. Cut-off read from the data, not from the text of the source: active = normalized growth mostly below about 0.91 (no sharp cut-off); inconclusive = no clear call, values can overlap the other calls; inactive = mostly above about 0.92. The list shows a part of the results.
Classes used: active, inactive

- compound: "COc1cc(N2C(=O)C=CC2=O)cc(OC)c1OC"
  assigned-category: "inactive"
- compound: "O=C(Nc1cc2c(s1)-c1cc(Cl)ccc1SC2)Oc1ccccc1"
  assigned-category: "inactive"
- compound: "FC(F)(F)c1cc(-c2ccc(Cl)cc2)n[nH]1"
  assigned-category: "inactive"
- compound: "Cc1ccc(OCc2n[nH]c(=S)n2Cc2ccccc2)c2c1CCC2"
  assigned-category: "inactive"
- compound: "Cn1nc(-c2ccccc2)c(O)c(N=Nc2ccccc2)c1=O"
  assigned-category: "inactive"
- compound: "O=c1c(-c2ccccc2)c(O)c2cccc3c4ccccc4n1c23"
  assigned-category: "active"
- compound: "CC(C)(C)c1ccc(C(=O)NNC(=S)Nc2ccc(Cl)cc2)cc1"
  assigned-category: "inactive"
- compound: "COc1ccc(C2CC(c3ccc(C)cc3C)=NN2C(C)=O)cc1 (centres undefined)"
  assigned-category: "inactive"
- compound: "Clc1ccc(N/N=C\\c2sccc2Oc2ccccc2)cc1"
  assigned-category: "inactive"
- compound: "S=C(N/N=C\\c1cccs1)NC1CC2CCC1C2 (centres undefined)"
  assigned-category: "inactive"
- compound: "S=C(Nc1ccc(Cl)cc1)Nc1ccc(Cl)cc1"
  assigned-category: "inactive"
- compound: "CC(C)(C)C(=O)c1sc2sc(C(=O)C(C)(C)C)c(N)c2c1N"
  assigned-category: "inactive"
- compound: "OC(CSc1ccccc1)CN1CCN(c2nc(-c3ccccc3)ns2)CC1 (centres undefined)"
  assigned-category: "inactive"
- compound: "O=c1c(-c2ccccc2)c(O)c2cccc3c4c(n1c23)CCCC4"
  assigned-category: "inactive"
